# Test protocol: qHTS assay to identify small molecule antagonists of the estrogen receptor alpha (ER-alpha) signaling pathway - cell viability counter screen (AID 743074);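 also: HEK293 cells carrying ER-alpha-UAS-bla reporter stimulated with 17beta-estradiol; nearly all actives have a fitted effect of over 45% in size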
# Protocol conditions: ERalpha-bla HEK293 viability, CellTiter-Glo luminescence, 18 h; series mostly up to 69.4 µM
Results filed as inconclusive are left out. The source made the active and inactive calls. Calls follow the shape of the full dose curve.
Give one outcome, nothing more. List: active, inactive

Example results:
Molecule | Label value
COc1cc(-c2ccc(-[n+]3nc(-c4ccccc4)nn3-c3ccc([N+](=O)[O-])cc3)c(OC)c2)ccc1-[n+]1nc(-c2ccccc2)nn1-c1ccc([N+](=O)[O-])cc1 | active
CN1[C@@H]2CC[C@H]1CC(OC(c1ccccc1)c1ccccc1)C2 (stereo not given in full) | inactive
Cc1cc2nc3c(=O)[nH]c(=O)nc-3n(C[C@H](O)[C@H](O)[C@H](O)COP(=O)(O)OP(=O)(O)OC[C@H]3O[C@@H](n4cnc5c(N)ncnc54)[C@H](O)[C@@H]3O)c2cc1C | active

*Q* Identify the outcome logged in this assay for the molecule shown: `O=C(O)CC/C=C\CC[C@@H]1[C@@H](N2CCCCC2)[C@@H](O)C[C@@H]1OCc1ccc(-c2ccccc2)cc1`
*A* inactive

*Q* Thanks! And `COC(=O)CCC[N+](C)(C)C` ?
*A* inactive

*Q* Now try `CCCCC[C@H](O)/C=C/[C@@H]1[C@H]2C/C(=C/CCCC(=O)O)O[C@H]2C[C@H]1O` .
*A* inactive

Measured values drawn from PubChem BioAssay (Tox21) for this set.
